Origin of measurements: patent US11485769B2

# test system: HLA-A*02:01 (Homo sapiens, UniProt P04439, D140Y/D185E/D98H/E176V/E277Q/G131W/G231S/I119V/I121R/I166T/I218V/L300P/L318F/N151K/N90K/P208A/P217A/Q86G/Q94H/R138H/R169H/T345S)
# procedure summary: MHC binding assay (UV-ligand exchange, beta2m ELISA, peptide exchange yield)
# condition summary: binding to HLA-A*02:01 ranged by peptide exchange yield, β2m ELISA
# Description: Candidate peptides for T cell based therapies according to the present invention were further tested for their MHC binding capacity (affinity). The individual peptide-MHC complexes were produced by UV-ligand exchange, where a UV-sensitive peptide is cleaved upon UV-irradiation, and exchanged with the peptide of interest as analyzed. Only peptide candidates that can effectively bind and stabilize the peptide-receptive MHC molecules prevent dissociation of the MHC complexes. […]
readout kind: Peptide exchange (MHC class I binding score)

Here are 5 substances together with their reported answers.
35 (FLFPSQYVDV; listed as Homo sapiens) [compound 35] = “+++” (≥50=+++)
9 (QIIDAINKV; listed as Homo sapiens) [compound 9] = “++” (≥20%=++)
51 (LLGPAGARA; listed as Homo sapiens) [compound 51] = “++” (≥20%=++)
45 (ILYSDDGQKWTV; listed as Homo sapiens) [compound 45] = “+++” (≥50=+++)
56 (NLIGVTAEL; listed as Homo sapiens) [compound 56] = “++” (≥20%=++)

Dear colleague, I am looking for the recorded Peptide exchange (MHC class I binding score) of the following substance: 55 (NLAPAPLNA; listed as Homo sapiens) [compound 55]
“++” (≥20%=++)

Quick check: Peptide exchange (MHC class I binding score) of 25 (LINPNIATV; listed as Homo sapiens) [compound 25] ?
“++” (≥20%=++)

Need Peptide exchange (MHC class I binding score) of 98 (ALDQKVRSV; listed as Homo sapiens) [compound 98] , thanks.
“++” (≥20%=++)

Value lookup for Peptide exchange (MHC class I binding score); key = 61 (SMYDGLLQA; listed as Homo sapiens) [compound 61]
“++” (≥20%=++)

Need Peptide exchange (MHC class I binding score) of 151 (ALLDIIRSL; listed as Homo sapiens) [compound 151] , thanks.
“++++” (>75%=++++)

Tell me the measured Peptide exchange (MHC class I binding score) of 8 (ALYTGSALDFV; listed as Homo sapiens) [compound 8] , please.
“+++” (≥50=+++)

Need Peptide exchange (MHC class I binding score), item 42 (ILSDMRSQYEV; listed as Homo sapiens) [compound 42]
“+++” (≥50=+++)

Report Peptide exchange (MHC class I binding score) for 11 (ALYYNPHLL; listed as Homo sapiens) [compound 11] please.
“++” (≥20%=++)

Can you look up the measured Peptide exchange (MHC class I binding score) of 134 (ILLAEGRLVNL; listed as Homo sapiens) [compound 134] for me?
“+++” (≥50=+++)

* * *

# test system: HLA-A*02:01 (Homo sapiens, UniProt P04439, D140Y/D185E/D98H/E176V/E277Q/G131W/G231S/I119V/I121R/I166T/I218V/L300P/L318F/N151K/N90K/P208A/P217A/Q86G/Q94H/R138H/R169H/T345S)
# procedure summary: MHC binding assay (UV-ligand exchange, beta2m ELISA, peptide exchange yield)
# condition summary: binding to HLA-A*02:01 ranged by peptide exchange yield, β2m ELISA
readout kind: Peptide exchange (MHC class I binding score)

86 (GLGDFIFYSV; listed as Homo sapiens) [compound 86] = “++++” (>75%=++++)
31 (YLDSMYIML; listed as Homo sapiens) [compound 31] = “+++” (≥50=+++)
63 (SVTGIIVGV; listed as Homo sapiens) [compound 63] = “++++” (>75%=++++)
15 (FILANEHNV; listed as Homo sapiens) [compound 15] = “+++” (≥50=+++)
93 (SIDSEPALV; listed as Homo sapiens) [compound 93] = “+++” (≥50=+++)

What does the data say about its Peptide exchange (MHC class I binding score)? Entry: 72 (VMASPGGLSAV; listed as Homo sapiens) [compound 72]
“+++” (≥50=+++)

What does the data say about its Peptide exchange (MHC class I binding score)? Entry: 149 (ILGTEDLIVEV; listed as Homo sapiens) [compound 149]
“+++” (≥50=+++)

What value of Peptide exchange (MHC class I binding score) has been reported for the following substance? 37 (FLNPDEVHAI; listed as Homo sapiens) [compound 37]
“++” (≥20%=++)

Find the recorded Peptide exchange (MHC class I binding score) belonging to 20 (GLIDIENPNRV; listed as Homo sapiens) [compound 20] and report it.
“+++” (≥50=+++)

Looking for the measured Peptide exchange (MHC class I binding score) of 82 (ALIAEGIAL; listed as Homo sapiens) [compound 82] , can you help?
“+++” (≥50=+++)

Look up Peptide exchange (MHC class I binding score) for this substance: 68 (VLFDVTGQV; listed as Homo sapiens) [compound 68]
“+++” (≥50=+++)

# Peptide exchange (MHC class I binding score) lookup, item 104 (FLQPDLDSL; listed as Homo sapiens) [compound 104]
“+++” (≥50=+++)

I'd like to know its Peptide exchange (MHC class I binding score). The substance in question is 41 (GLLAGNEKLTM; listed as Homo sapiens) [compound 41]
“++” (≥20%=++)
